Sourced from the supplement of paper PMC10065799

System: c-Src
Assay: phosphorylation enrichment, bacterial display (enrichment ratio); higher = better substrate or ligand; peptides without Tyr show the background;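 note: 11-residue human phosphosite peptides and single-mutation variants displayed on the E. coli surface, counted by deep sequencing, each peptide's frequency after selection divided by its frequency in the unselected input library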;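 note: frequency after pTyr selection over input frequency; kinase dosed for 20-30% of maximal phosphorylation in three min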
For each of the sequences below, state its phosphorylation enrichment.
Give bare numbers.

Consider the reported phosphorylation enrichment for these sequences:
Request body: readout phosphorylation enrichment, system c-Src, query TQTPPYVKKHR [LARP1B_Y457_P462R] . Return the value.
0.624

Request body: readout phosphorylation enrichment, system c-Src, query GDEEDYFEIPG [EGFR_opt_F_2015] . Return the value.
0.628

Request body: readout phosphorylation enrichment, system c-Src, query QMRLRYLAAEE [CEP120_Y884] . Return the value.
0.647

Request body: readout phosphorylation enrichment, system c-Src, query ISMAGYSIPEL [EDAR_Y406_T403M] . Return the value.
0.508

Request body: readout phosphorylation enrichment, system c-Src, query RKLVDYDSARH [BIN1_Y150] . Return the value.
0.649

// each listed sequence needs a value for phosphorylation enrichment
1. HNLYSYPTKHE [MYO3A_Y1396]
2. SSYDIYHLSRE [KIR3DL2_Y253]
3. PTTKTYFPRFD [HBA1_Y43_H46R]
4. GGFTCYCDGKK [PROS1_Y266_YF]
5. LSKDLYLISQM [LARP4_Y141]

1: 2.96; 2: 9.33; 3: 0.421; 4: 0.354; 5: 0.639

// each listed sequence needs a value for phosphorylation enrichment
1. FSAPNCCYRCG [PPP2CA_Y265_Y265C]
2. PSTFRYERGSR [INPPL1_Y663_P659S_YF]
3. TGQEEYSAMRD [KRAS_Y64_A59T]
4. VRFVDYVLFRS [FAM189B_Y361_S358F]

0.5
0.491
0.525
0.477

* * *

For each of the sequences below, state its phosphorylation enrichment.
Test system: AncSZ
Experiment: phosphorylation enrichment, bacterial display (enrichment ratio); higher = better substrate or ligand; peptides without Tyr show the background

Consider the reported phosphorylation enrichment for these sequences:
For the sequence shown here, QGCSIYKDYYR [PLA2G2D_Y82] , give the reported phosphorylation enrichment.
1.29

For the sequence shown here, DTNIAYCLHPR [POMT1_Y581_W582C] , give the reported phosphorylation enrichment.
0.831

For the sequence shown here, SYSGEYGGGGG [ZG16_Y30] , give the reported phosphorylation enrichment.
0.604

For the sequence shown here, SGPRRYTMAAL [TTR_Y125_I127M] , give the reported phosphorylation enrichment.
0.677

For the sequence shown here, ANLAKYGNPNE [BCHE_Y505_F502L] , give the reported phosphorylation enrichment.
0.778

For the sequence shown here, PTTKTYFLHFD [HBA1_Y43_P45L] , give the reported phosphorylation enrichment.
1.66

// each listed sequence needs a value for phosphorylation enrichment
1. LHQSTYQCFDV [SLC7A14_Y693_R695C_YF]
2. PESIMYWKFTT [NTRK3_Y744_R745W]
3. GLAKGYIDPET [CSNK1G2_Y195_E194G]
4. RKLVDYDSARH [BIN1_Y150]
5. TLLSAYQIPRT [GAB2_Y324_P320L]
6. EDKFMYFEFPQ [PTEN_Y240]
7. PYIDSYEKDVA [PGM1_Y521_L516P]
8. RFLRGYRQFAF [HLA-A_Y137_D140Y_YF]

1.25
2.52
1.04
0.491
0.729
1.7
1.66
1.19
